Sourced from ChEMBL document CHEMBL3826941

Could you please report measured GI50 for the items listed next?
test: Antiproliferative activity against human 686LN cells assessed as cell growth inhibition; format: functional
Numbers only, in µM.

COc1ccc(C2=Nn3c(nnc3-c3cc(-c4ccc(Cl)cc4)n[nH]3)SC2C)cc1 (stereo in doubt; form 1) = 17.4
Clc1ccc(C2=Nn3c(nnc3-c3cc(-c4ccccc4)[nH]n3)SC2)cc1 = 27
Clc1ccc(C2=Nn3c(nnc3-c3[nH]nc4c3CCC4)SC2)cc1Cl = 14
COc1ccc(C2=Nn3c(nnc3-c3[nH]nc4c3CCC4)SC2C)cc1 (stereo not given) = 0.88

Turning now to a further record.
Data point: CC1Sc2nnc(-c3cc(-c4ccccc4)n[nH]3)n2N=C1c1ccccc1 (stereo not given) ; GI50 = 32.2
